Values were extracted from patent US5340788A.

- test: Stability of background to heat and humidity (heat sensitive recording paper, Macbeth Reflection Densitometer)
- condition: reflection density, filter #106; before 50° C., 80% humidity
// values below are reported Stability of Background to heat and humidity, Before exposing
endpoint label: Stability of Background to heat and humidity, Before exposing

# compound, quantitative readout
data = [
    ("CC(C)Oc1ccc(S(=O)(=O)c2ccc(OCC3CO3)cc2)cc1 (stereo not drawn) [compound 1, reference compound]", 0.07),
    ("CC1(COc2ccc(S(=O)(=O)c3ccc(OCc4ccccc4)cc3)cc2)CO1 (stereo not drawn)", 0.06),
    ("CC1(COc2ccc(S(=O)(=O)c3ccc(OCc4ccc(Cl)cc4)cc3)cc2)CO1 (stereo not drawn)", 0.07),
]

* * *

- test: Photostability of developed image (Fademeter, Macbeth Reflection Densitometer)
- condition: reflection density, filter #106; after Fademeter exposing for 3 hours
Reported Photostability of developed image, After exposing values for the following molecules.
endpoint label: Photostability of developed image, After exposing

# molecule, quantitative readout
measured = [
    ("CC1(COc2ccc(S(=O)(=O)c3ccc(OCc4ccccc4Cl)cc3)cc2)CO1 (centres unmarked)", 1.09),
    ("Cc1ccc(COc2ccc(S(=O)(=O)c3ccc(OCC4(C)CO4)cc3)cc2)cc1 (centres unmarked)", 1.16),
    ("CC(C)Oc1ccc(S(=O)(=O)c2ccc(OCC3CO3)cc2)cc1 (centres unmarked) [compound 1, reference compound]", 1.00),
    ("C=CCOc1ccc(S(=O)(=O)c2ccc(OCC3CO3)cc2)cc1 (centres unmarked)", 1.12),
    ("CC1(COc2ccc(S(=O)(=O)c3ccc(OCc4ccccc4)cc3)cc2)CO1 (centres unmarked)", 1.13),
    ("O=S(=O)(c1ccc(OCc2ccc(Cl)cc2)cc1)c1ccc(OCC2CO2)cc1 (centres unmarked)", 1.15),
    ("Cc1ccc(COc2ccc(S(=O)(=O)c3ccc(OCC4CO4)cc3)cc2)cc1 (centres unmarked)", 1.12),
    ("CC1(COc2ccc(S(=O)(=O)c3ccc(OCc4ccc(Cl)cc4)cc3)cc2)CO1 (centres unmarked)", 1.14),
]

* * *

Recorded Stability of Background to heat and humidity, Before exposing for the following molecules
- test: Stability of background to heat and humidity (heat sensitive recording paper, Macbeth Reflection Densitometer)
- condition: reflection density, filter #106; before 50° C., 80% humidity
endpoint label: Stability of Background to heat and humidity, Before exposing

# molecule, quantitative readout
data = [
    ("Cc1ccc(COc2ccc(S(=O)(=O)c3ccc(OCC4(C)CO4)cc3)cc2)cc1 (centres unmarked) [(6)]", 0.09),
    ("Cc1ccc(COc2ccc(S(=O)(=O)c3ccc(OCC4CO4)cc3)cc2)cc1 (centres unmarked) [compound (5)]", 0.08),
    ("CC1(COc2ccc(S(=O)(=O)c3ccc(OCc4ccccc4Cl)cc3)cc2)CO1 (centres unmarked) [(3)]", 0.08),
    ("C=CCOc1ccc(S(=O)(=O)c2ccc(OCC3CO3)cc2)cc1 (centres unmarked) [(7)]", 0.07),
    ("O=S(=O)(c1ccc(OCc2ccc(Cl)cc2)cc1)c1ccc(OCC2CO2)cc1 (centres unmarked) [(2)]", 0.07),
]

* * *

- test: Photostability of developed image (Fademeter, Macbeth Reflection Densitometer)
- condition: reflection density, filter #106; color developed at 150° C.; before Fademeter
Below: a set of entries, each annotated with reported Photostability of developed image, Before exposing.
endpoint label: Photostability of developed image, Before exposing

# compound, result
records = [
    ("CC1(COc2ccc(S(=O)(=O)c3ccc(OCc4ccc(Cl)cc4)cc3)cc2)CO1 (centres unmarked) [(4)]", 1.23),
    ("O=S(=O)(c1ccc(OCc2ccc(Cl)cc2)cc1)c1ccc(OCC2CO2)cc1 (centres unmarked) [(2)]", 1.23),
    ("CC1(COc2ccc(S(=O)(=O)c3ccc(OCc4ccccc4Cl)cc3)cc2)CO1 (centres unmarked) [(3)]", 1.22),
    ("CC(C)Oc1ccc(S(=O)(=O)c2ccc(OCC3CO3)cc2)cc1 (centres unmarked) [compound 1, reference compound]", 1.19),
    ("C=CCOc1ccc(S(=O)(=O)c2ccc(OCC3CO3)cc2)cc1 (centres unmarked) [(7)]", 1.21),
    ("CC1(COc2ccc(S(=O)(=O)c3ccc(OCc4ccccc4)cc3)cc2)CO1 (centres unmarked) [compound (1)]", 1.21),
    ("Cc1ccc(COc2ccc(S(=O)(=O)c3ccc(OCC4CO4)cc3)cc2)cc1 (centres unmarked) [compound (5)]", 1.20),
    ("Cc1ccc(COc2ccc(S(=O)(=O)c3ccc(OCC4(C)CO4)cc3)cc2)cc1 (centres unmarked) [(6)]", 1.22),
]

* * *

- test: Stability of background to heat and humidity (heat sensitive recording paper, Macbeth Reflection Densitometer)
- condition: reflection density, filter #106; after 50° C. under 80% humidity
Would you please tag the item 1 (yes) when its Stability of Background to heat and humidity, After exposing is 0.09 or above, and 0 (no) when it is below?

# molecule, category
records = [
    ("C=CCOc1ccc(S(=O)(=O)c2ccc(OCC3CO3)cc2)cc1 (centres unmarked) [(7)]", "0 (no)"),
    ("CC(C)Oc1ccc(S(=O)(=O)c2ccc(OCC3CO3)cc2)cc1 (centres unmarked) [compound 1, reference compound]", "1 (yes)"),
    ("Cc1ccc(COc2ccc(S(=O)(=O)c3ccc(OCC4CO4)cc3)cc2)cc1 (centres unmarked) [compound (5)]", "1 (yes)"),
    ("CC1(COc2ccc(S(=O)(=O)c3ccc(OCc4ccccc4Cl)cc3)cc2)CO1 (centres unmarked) [(3)]", "1 (yes)"),
    ("Cc1ccc(COc2ccc(S(=O)(=O)c3ccc(OCC4(C)CO4)cc3)cc2)cc1 (centres unmarked) [(6)]", "1 (yes)"),
    ("CC1(COc2ccc(S(=O)(=O)c3ccc(OCc4ccccc4)cc3)cc2)CO1 (centres unmarked) [compound (1)]", "0 (no)"),
    ("O=S(=O)(c1ccc(OCc2ccc(Cl)cc2)cc1)c1ccc(OCC2CO2)cc1 (centres unmarked) [(2)]", "1 (yes)"),
]
